Form: system (Staphylococcus aureus), quantity (MIC), values below.
Entry rule: numbers only, all in µM.

Before answering, review these 2 worked examples.
{"entrySmiles": "CC[C@H](C)[C@H](N=C(O)[C@H](C)N=C(O)[C@H](C)N=C(O)[C@@H](N=C(O)[C@@H](N=C(O)[C@H](Cc1cnc[nH]1)N=C(O)[C@H](C)N=C(O)[C@H](C)N=C(O)[C@@H](N=C(O)[C@H](CCCCN)N=C(O)[C@H](C)N=C(O)[C@H](CC(C)C)N=C(O)[C@@H](N=C(O)CN=C(O)[C@H](Cc1ccccc1)N=C(O)[C@H](CC(C)C)N=C(O)CN)C(C)C)C(C)C)C(C)C)C(C)C)C(O)=N[C@@H](C)C(O)=N[C@@H](CCC(=O)O)C(O)=N[C@@H](Cc1cnc[nH]1)C(O)=N[C@@H](Cc1ccccc1)C(=N)O", "displayUnit": "µM", "number": 33.3}
{"entrySmiles": "CC(C)C[C@H](NC(=O)[C@H](CCCCN)NC(=O)[C@H](Cc1ccccc1)NC(=O)[C@H](CC(C)C)NC(=O)[C@@H](NC(=O)[C@@H]1CCCN1C(=O)[C@@H](N)CC(C)C)C(C)C)C(=O)N[C@@H](C)C(=O)N[C@@H](CO)C(=O)N[C@@H](CCCCN)C(=O)N[C@H](C(=O)N[C@@H](Cc1ccccc1)C(=O)N1CCC[C@H]1C(=O)N[C@@H](C)C(=O)N[C@H](C(=O)N[C@@H](Cc1ccccc1)C(=O)N[C@@H](CO)C(=O)N[C@@H](CO)C(=O)N[C@@H](CC(C)C)C(=O)N[C@@H](CCCCN)C(=O)O)C(C)C)C(C)C", "displayUnit": "µM", "number": 58.4}

Kindly review the next molecule as well.
Prompt line: So what MIC did `CC(C)[C@H](NC(=O)CNC(=O)[C@H](CCCN=C(N)N)NC(=O)[C@@H](NC(=O)[C@@H](NC(=O)[C@@H](NC(=O)[C@H](CCCN=C(N)N)NC(=O)CNC(=O)[C@H](Cc1c[nH]c2ccccc12)NC(=O)[C@H](CCCN=C(N)N)NC(=O)[C@@H](NC(=O)[C@@H](NC(=O)[C@@H](NC(=O)CN)C(C)C)C(C)C)C(C)C)C(C)C)C(C)C)C(C)C)C(=O)N[C@@H](CCCN=C(N)N)C(=O)N[C@@H](CCCN=C(N)N)C(N)=O` get with Staphylococcus aureus?
Response line: 8

###

# Test system: Pseudomonas aeruginosa Ps4
# testName: ≥ marks a high value that may be exact or a test limit, other limits are often not marked, values filed in µg/mL are converted to µM
outcomeMeasure: MIC

Before answering, review these 2 worked examples.
{"entrySmiles": "CC[C@H](C)[C@H](NC(=O)[C@H](CC(N)=O)NC(=O)[C@H](CCCN=C(N)N)NC(=O)[C@H](CCC(N)=O)NC(=O)[C@H](Cc1c[nH]c2ccccc12)NC(=O)[C@@H](N)Cc1ccccc1)C(=O)N[C@@H](CCCN=C(N)N)C(=O)N[C@@H](CCCCN)C(=O)N[C@@H](Cc1ccccc1)C(=O)N[C@@H](CCCN=C(N)N)C(N)=O", "assayTarget": "Pseudomonas aeruginosa Ps4", "result": "≥ 172 µM"}
{"entrySmiles": "NC(=O)C[C@H](NC(=O)[C@H](CCCN=C(N)N)NC(=O)[C@H](CCCN=C(N)N)NC(=O)[C@H](Cc1c[nH]c2ccccc12)NC(=O)[C@@H](N)Cc1ccccc1)C(=O)N[C@@H](Cc1ccccc1)C(=O)N[C@@H](Cc1c[nH]c2ccccc12)C(=O)N[C@@H](CCCN=C(N)N)C(=O)N[C@@H](CCCN=C(N)N)C(N)=O", "assayTarget": "Pseudomonas aeruginosa Ps4", "result": "≥ 176 µM"}

Kindly review the next molecule as well.
Prompt line: Sample `CC[C@H](C)[C@H](NC(=O)[C@H](CC(N)=O)NC(=O)[C@H](CCCN=C(N)N)NC(=O)[C@H](CCC(N)=O)NC(=O)[C@H](Cc1c[nH]c2ccccc12)NC(=O)[C@@H](N)Cc1ccccc1)C(=O)N[C@@H](CCCCN)C(=O)N[C@H](C(=O)N[C@@H](CCCN=C(N)N)C(N)=O)C(C)C` — what was its MIC?
Response line: ≥ 201 µM
